The reported numbers originate from patent US12280090B2.

Reported MIC values are given for each entry in this list.
- System: Mycobacterium smegmatis (MC^2155)
- Type: cell-based
- conditionSummary: Mycobacterium (MC^2155)
Ends that are not written are not given here.

Answered cases to consult:
>>> reported("IQRLPVINMLKLWKLELEII [Peptide P13_CCH]")
">256 µg/mL"
>>> reported("ATAWRIPPPGMQPIIPIRIRPLCGKQ [Peptide P7_CCH]")
"32 µg/mL"

Let's switch to this sequence now.
### Prompt Return the recorded MIC value; entry: LRCPTPHYNFENGIGNHLMWNIIWLNAQQMSYKNK [Peptide P15_CCH]
### Response >256 µg/mL

* * *

Reported MIC values are given for each entry in this list.
- Tested on: Mycobacterium smegmatis (MC^2155)
- Assay type: cell-based
- conditionSummary: Mycobacterium (MC^2155)
Ends that are not written are not given here.

Answered cases to consult:
>>> reported("SNRDFFKVNIFRLCG [Peptide P10_CCH, SNRDFFKVNIFRLCG]")
">256 µg/mL"
>>> reported("SNRDFFMVNIFGLCGPFGIMERKRR [Peptide P16_CCH]")
">256 µg/mL"
>>> reported("FLTKPGMTFGKLLGK [Peptide P9_CCH]")
">256 µg/mL"

### Prompt Return the recorded MIC value; entry: IAGQVAAAKQKHI [Peptide P12_CCH, IAGQVAAAKQKHI]
### Response >256 µg/mL

### Prompt Return the recorded MIC value; entry: FFPRVLPLANKFLPTIYCALPKSVGN [Peptide P2_CCH]
### Response 16 µg/mL

### Prompt Return the recorded MIC value; entry: ALVAKIQKFPVFNTLKLCKLELEII [Peptide P11_CCH]
### Response >256 µg/mL

* * *

- assayProcedure: in vitro
- conditionSummary: red blood cells, HC50 (hemolysis test)
Ends that are not written are not given here.
outcomeMeasure: HC50 (µg/mL)
Give your result in µg/mL as a bare value.

### Prompt Return the recorded HC50 value; entry: FFPRVLRLANKFLPKIYCALPKSVGN [P2_CCH_T15K_P7R]
### Response 64
